B1: HSP90AB1 (parent)
chain: QVANSAFVERVRKRGFEVVYMTEP

- Variants of: B1
- Method: protein stability index of a GFP-peptide fusion (GPS, HEK-293T) (PSI 1-6); higher = more stable;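 note: lentivirally expressed fusions sorted by FACS into six bins by GFP to DsRed ratio, PSI derived from sequencing read proportions per bin multiplied by bin number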
- Protocol Conditions: c terminus: a fixed tail appended
Provide the reported protein stability index of each item.
Reply with just the number.

Quick one: give measured protein stability index for V18W
2.05

Quick one: give measured protein stability index for V19Y
1.98

Quick one: give measured protein stability index for V8L
1.96

Quick one: give measured protein stability index for E9V
1.97

Quick one: give measured protein stability index for R10C
2.05
